- system.tested: Grb2 SH2 (UniProt P62993)
- test.protocol: SH2 binding enrichment of the phosphorylated peptide, bacterial display (enrichment ratio); higher = better substrate or ligand; peptides without Tyr show the background;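 further: peptide library displayed on the E. coli surface as eCPX fusions, selected cells deep-sequenced, score is each peptide's frequency after selection divided by its frequency in the input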
endpoint: SH2 binding enrichment

In the examples that follow, each entry is paired with its recorded SH2 binding enrichment.
>>> endpoint_value("QAPPVYLDVLG [NTRK1_Y791]")
1.03
>>> endpoint_value("GGQEDYDRLRP [RAC3_Y64_A59G]")
0.821
>>> endpoint_value("RFLRGYRQFAF [HLA-A_Y137_D140Y_YF]")
0.895
>>> endpoint_value("DGTGHYLCNAC [GATA5_Y208]")
0.83
>>> endpoint_value("AEQDWYHGAIP [FER_Y461]")
0.725

A: VRRRSYSAGNA [KANK1_Y324_K321R]
B: PHMQTYEVDLN [SDHB_Y61]
Of the pair A and B , name the member with the lesser recorded SH2 binding enrichment. State the label of the item chosen.
A

I: PANMVYSTVEI [SLAMF7_Y304_T302M]
II: ALWFIYSHTRS [ENG_Y614_YF]
Of the pair I and II , name the member with the lesser recorded SH2 binding enrichment. State the label of the item chosen.
I
(I: 0.699, II: 1.13)

a: NHFKIYNPCAE [PTEN_Y68_L70P_YF]
b: PLQKIYNFNVL [SLC4A1_Y553_T552I_YF]
c: LCRYGYANTSE [SI_Y1233]
Place the items in sequence of falling SH2 binding enrichment. Provide the ranking by listing each label in its place in the requested order.
c, b, a

I: DMDATYRPMFS [JUP_Y701_YF]
II: LARHMYDKEYY [MET_Y1230_D1228H]
Of the pair I and II , name the member with the lesser recorded SH2 binding enrichment. State the label of the item chosen.
I
(I: 0.762, II: 1.25)
